Quick reference: Ki of the listed items.
# Target entity: hMC4-R (human) (UniProt P32245)
# Sequence (P32245 whole entry): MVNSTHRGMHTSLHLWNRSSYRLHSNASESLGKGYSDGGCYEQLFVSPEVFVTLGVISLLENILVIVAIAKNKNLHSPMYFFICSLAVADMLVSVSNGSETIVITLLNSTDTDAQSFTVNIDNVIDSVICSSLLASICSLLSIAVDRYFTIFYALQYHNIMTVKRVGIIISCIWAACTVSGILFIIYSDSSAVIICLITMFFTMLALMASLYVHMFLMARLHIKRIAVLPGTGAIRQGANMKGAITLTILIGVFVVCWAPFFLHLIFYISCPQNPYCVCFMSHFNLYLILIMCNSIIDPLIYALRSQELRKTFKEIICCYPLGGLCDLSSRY
# Assay explanation: competition with [125I]-NDP-α-MSH, CHO-K1 membranes
Bridge positions count the residues as written; N and C are the ends. Square brackets hold non-standard residues; d marks the D form. Ends that are not written are not given here. Bip = N[C@@H](Cc1ccc(-c2ccccc2)cc1)C(=O)O; d2Nal = N[C@H](Cc1ccc2ccccc2c1)C(=O)O; hArg = N=C(N)NCCCC[C@H](N)C(=O)O; Pen = CC(C)(S)[C@H](N)C(=O)O; Nle = CCCC[C@H](N)C(=O)O; GABA = NCCCC(=O)O; βAla = NCCC(=O)O

- Binder: "Ac-[Nle]CH[d2Nal]RW[GABA]C-NH2 (disulfide 2-8) [Ac-Nle-c(Cys-His-D-2-Nal-Arg-Trp-Gaba-Cys)-NH2]"
  Ki: "0.375 nM"
- Binder: "Ac-[Nle][Pen]H[dF]RW[GABA]C-NH2 (disulfide 2-8; SMILES CCCC[C@H](NC(C)=O)C(=O)N[C@@H]1C(=O)N[C@@H](Cc2c[nH]cn2)C(=O)N[C@H](Cc2ccccc2)C(=O)N[C@@H](CCCNC(=N)N)C(=O)N[C@@H](Cc2c[nH]c3ccccc23)C(=O)NCCCC(=O)N[C@H](C(N)=O)CSSC1(C)C) [Ac-Nle-c(Pen-His-D-Phe-Arg-Trp-Gaba-Cys)-NH2]"
  Ki: "5.89 nM"
- Binder: "[dF]CH[dF]RW[βAla][dC]T-NH2 (disulfide 2-8; N-terminus assumed; SMILES C[C@@H](O)[C@H](NC(=O)[C@H]1CSSC[C@H](NC(=O)[C@H](N)Cc2ccccc2)C(=O)N[C@@H](Cc2c[nH]cn2)C(=O)N[C@H](Cc2ccccc2)C(=O)N[C@@H](CCCNC(=N)N)C(=O)N[C@@H](Cc2c[nH]c3ccccc23)C(=O)NCCC(=O)N1)C(N)=O) [D-Phe-c(Cys-His-D-Phe-Arg-Trp-β-Ala-D-Cys)-Thr-NH2]"
  Ki: "2.58 nM"
- Binder: "[dF]CH[d(Et)Tyr]RW[βAla][dC]T-NH2 (disulfide 2-8) [D-Phe-c(Cys-His-D-(Et)Tyr-Arg-Trp-β-Ala-D-Cys)-Thr-NH2]"
  Ki: "1.1 nM"
- Binder: "[dF]CH[d(Et)Tyr][hArg][Bip][βAla][dC]T-NH2 (disulfide 2-8) [D-Phe-c(Cys-His-D-(Et)Tyr-hArg-Bip-β-Ala-D-Cys)-Thr-NH2]"
  Ki: "36.9 nM"
- Binder: "[dF]CH[dF][hArg][Bip][βAla][dC]T-NH2 (disulfide 2-8; N-terminus assumed; SMILES C[C@@H](O)[C@H](NC(=O)[C@H]1CSSC[C@H](NC(=O)[C@H](N)Cc2ccccc2)C(=O)N[C@@H](Cc2c[nH]cn2)C(=O)N[C@H](Cc2ccccc2)C(=O)N[C@@H](CCCCNC(=N)N)C(=O)N[C@@H](Cc2ccc(-c3ccccc3)cc2)C(=O)NCCC(=O)N1)C(N)=O) [D-Phe-c(Cys-His-D-Phe-hArg-Bip-β-Ala-D-Cys)-Thr-NH2]"
  Ki: "172 nM"
- Binder: "Ac-[Nle]C[dA]H[dF]RW[dA]C-NH2 (disulfide 2-9; SMILES CCCC[C@H](NC(C)=O)C(=O)N[C@H]1CSSC[C@@H](C(N)=O)NC(=O)[C@@H](C)NC(=O)[C@H](Cc2c[nH]c3ccccc23)NC(=O)[C@H](CCCNC(=N)N)NC(=O)[C@@H](Cc2ccccc2)NC(=O)[C@H](Cc2c[nH]cn2)NC(=O)[C@@H](C)NC1=O) [Ac-Nle-c(Cys-D-Ala-His-D-Phe-Arg-Trp-D-Ala-Cys)-NH2]"
  Ki: "48 nM"
- Binder: "[dF]CH[dF][hArg]W[βAla][dC]T-NH2 (disulfide 2-8; N-terminus assumed; SMILES C[C@@H](O)[C@H](NC(=O)[C@H]1CSSC[C@H](NC(=O)[C@H](N)Cc2ccccc2)C(=O)N[C@@H](Cc2c[nH]cn2)C(=O)N[C@H](Cc2ccccc2)C(=O)N[C@@H](CCCCNC(=N)N)C(=O)N[C@@H](Cc2c[nH]c3ccccc23)C(=O)NCCC(=O)N1)C(N)=O) [D-Phe-c(Cys-His-D-Phe-hArg-Trp-β-Ala-D-Cys)-Thr-NH2]"
  Ki: "10.3 nM"
